# normalised viability listing for each entry below
# System: DU-4475
# experimental protocol: normalised viability (% of control), CellTiter-Blue; higher = more viable cells (about 100 = DMSO control)
# condition notes: 10 nM; incubation time: 72 h
The reply should be a number in %, with the unit left off.

Consider the reported normalised viability for these molecules:
CN1CCN(CCOc2cc(OC3CCOCC3)c3c(Nc4c(Cl)ccc5c4OCO5)ncnc3c2)CC1 [Saracatinib] :: 105
CN(C)CCN1C(=O)c2cccc3cc(N)cc(c23)C1=O [Amonafide] :: 95.8
CC[C@]1(O)C[C@H]2CN(CCc3c([nH]c4ccccc34)[C@@](C(=O)OC)(c3cc4c(cc3OC)N(C=O)[C@H]3[C@@](O)(C(=O)OC)[C@H](OC(C)=O)[C@]5(CC)C=CCN6CC[C@]43[C@@H]65)C2)C1 [Vincristine] :: 78.8
CC(C)(C#N)c1cc(Cn2cncn2)cc(C(C)(C)C#N)c1 [Anastrozole] :: 98.6

Item: CNNCc1ccc(C(=O)NC(C)C)cc1 [Procarbazine] | normalised viability: 112

Item: CN(C)C[C@@H]1CCn2cc(c3ccccc32)C2=C(C(=O)NC2=O)c2cn(c3ccccc23)CCO1 [Ruboxistaurin] | normalised viability: 101

---

# Test system: CAL-148
# experimental protocol: normalised response (% of control), CellTox Green; higher = less cell death (100 = DMSO, 0 = benzethonium chloride kill control)
# condition notes: incubation time: 72 h
# normalised response listing for each entry below
The reply should be a number in %, with the unit left off.

C[C@]12CC[C@H](O)CC1=CC[C@@H]1[C@@H]2CC[C@]2(C)C(c3cccnc3)=CC[C@@H]12 [Abiraterone] (50 nM) :: 106
O=C(O)CCCc1ccc(N(CCCl)CCCl)cc1 [Chlorambucil] (1000 nM) :: 104
CN(C)C[C@@H]1CCn2cc(c3ccccc32)C2=C(C(=O)NC2=O)c2cn(c3ccccc23)CCO1 [Ruboxistaurin] (100 nM) :: 102
c1ccc([C@H]2CN3CCSC3=N2)cc1 [Levamisole] (1000 nM) :: 107
Nc1ncnc2c1c(COc1cccc(Cl)c1)nn2C1CCOCC1 (100 nM) :: 107
Cn1cncc1[C@@](N)(c1ccc(Cl)cc1)c1ccc2c(c1)c(-c1cccc(Cl)c1)cc(=O)n2C [Tipifarnib] (10000 nM) :: 89.5
NS(=O)(=O)OC[C@@H]1C[C@@H](n2ccc3c(N[C@H]4CCc5ccccc54)ncnc32)C[C@@H]1O [Pevonedistat] (1000 nM) :: 104
CCCCCCCCc1ccc(CCC(N)(CO)CO)cc1 [Fingolimod] (10000 nM) :: 67.4

Item: COc1ccccc1S(=O)(=O)Nc1ccc2c(c1)CN(C)C(=O)N2 [PFI-1] (10000 nM) | normalised response: 91.6

Item: Nc1nc(OCc2cc(Br)cs2)c2[nH]cnc2n1 [Lomeguatrib] (1000 nM) | normalised response: 99.9

Item: Cn1cncc1[C@@](N)(c1ccc(Cl)cc1)c1ccc2c(c1)c(-c1cccc(Cl)c1)cc(=O)n2C [Tipifarnib] (1000 nM) | normalised response: 96

Item: O=C(O)CCCc1ccc(N(CCCl)CCCl)cc1 [Chlorambucil] (10000 nM) | normalised response: 95.3

Item: Cn1c(=O)n(-c2ccc(C(C)(C)C#N)cc2)c2c3cc(-c4cnc5ccccc5c4)ccc3ncc21 [Dactolisib] (100 nM) | normalised response: 72.8

Item: c1ccc([C@H]2CN3CCSC3=N2)cc1 [Levamisole] (100 nM) | normalised response: 103

Item: Nc1ncnc2c1c(COc1cccc(Cl)c1)nn2C1CCOCC1 (10000 nM) | normalised response: 96

---

# Tested on: CAL-85-1
# experimental protocol: normalised response (% of control), CellTiter-Glo; higher = more viable cells (100 = DMSO, 0 = benzethonium chloride kill control)
# condition notes: incubation time: 72 h
# normalised response listing for each entry below
The reply should be a number in %, with the unit left off.

Nc1ncnc2c1c(COc1cccc(Cl)c1)nn2C1CCOCC1 (100 nM) :: 103
CNNCc1ccc(C(=O)NC(C)C)cc1 [Procarbazine] (100 nM) :: 101
Cn1cncc1[C@@](N)(c1ccc(Cl)cc1)c1ccc2c(c1)c(-c1cccc(Cl)c1)cc(=O)n2C [Tipifarnib] (100 nM) :: 104
C/C(=C\c1csc(C)n1)[C@@H]1C[C@@H]2O[C@]2(C)CCC[C@H](C)[C@H](O)[C@@H](C)C(=O)C(C)(C)[C@@H](O)CC(=O)O1 [Patupilone] (10 nM) :: 80.2
CCCCCCCCc1ccc(CCC(N)(CO)CO)cc1 [Fingolimod] (100 nM) :: 105

Let's switch to this compound now.
I looked up Cn1c(=O)n(-c2ccc(C(C)(C)C#N)cc2)c2c3cc(-c4cnc5ccccc5c4)ccc3ncc21 [Dactolisib] (10 nM) and its normalised response for CAL-85-1 was 62.9

---

# Tested on: MDA-MB-468
# experimental protocol: drug sensitivity score (DSS), CellTiter-Glo (DSS (AUC-based score)); higher = stronger drug effect (viability inhibition or cytotoxicity); extreme values may be limits of the assay
# condition notes: incubation time: 72 h
parameter: drug sensitivity score
Response field accepts a number only; no unit should be typed.

Consider the reported drug sensitivity score for these molecules:
CN(C)C[C@@H]1CCn2cc(c3ccccc32)C2=C(C(=O)NC2=O)c2cn(c3ccccc23)CCO1 :: 8.68
Cn1c(=O)n(-c2ccc(C(C)(C)C#N)cc2)c2c3cc(-c4cnc5ccccc5c4)ccc3ncc21 :: 13.2
O=C(O)CCCc1ccc(N(CCCl)CCCl)cc1 :: 0
CC[C@]1(O)C[C@H]2CN(CCc3c([nH]c4ccccc34)[C@@](C(=O)OC)(c3cc4c(cc3OC)N(C=O)[C@H]3[C@@](O)(C(=O)OC)[C@H](OC(C)=O)[C@]5(CC)C=CCN6CC[C@]43[C@@H]65)C2)C1 :: 23
C[C@]12CC[C@H](O)CC1=CC[C@@H]1[C@@H]2CC[C@]2(C)C(c3cccnc3)=CC[C@@H]12 :: 0

Item: COc1ccccc1S(=O)(=O)Nc1ccc2c(c1)CN(C)C(=O)N2 | drug sensitivity score: 0

Item: Nc1nc(OCc2cc(Br)cs2)c2[nH]cnc2n1 | drug sensitivity score: 0

---

# Test system: BT-549
# experimental protocol: normalised response (% of control), CellTiter-Glo; higher = more viable cells (100 = DMSO, 0 = benzethonium chloride kill control)
# condition notes: incubation time: 72 h
# normalised response listing for each entry below
The reply should be a number in %, with the unit left off.

CC[C@]1(O)C[C@H]2CN(CCc3c([nH]c4ccccc34)[C@@](C(=O)OC)(c3cc4c(cc3OC)N(C=O)[C@H]3[C@@](O)(C(=O)OC)[C@H](OC(C)=O)[C@]5(CC)C=CCN6CC[C@]43[C@@H]65)C2)C1 [Vincristine] (1 nM) :: 87.6
CNNCc1ccc(C(=O)NC(C)C)cc1 [Procarbazine] (1000 nM) :: 98.7
Nc1nc(OCc2cc(Br)cs2)c2[nH]cnc2n1 [Lomeguatrib] (1000 nM) :: 96.6
NS(=O)(=O)OC[C@@H]1C[C@@H](n2ccc3c(N[C@H]4CCc5ccccc54)ncnc32)C[C@@H]1O [Pevonedistat] (1000 nM) :: 34.6
CN1CCN(CCOc2cc(OC3CCOCC3)c3c(Nc4c(Cl)ccc5c4OCO5)ncnc3c2)CC1 [Saracatinib] (10 nM) :: 103
c1ccc([C@H]2CN3CCSC3=N2)cc1 [Levamisole] (1000 nM) :: 100
CN(C)CCN1C(=O)c2cccc3cc(N)cc(c23)C1=O [Amonafide] (10 nM) :: 100
Nc1ncnc2c1c(COc1cccc(Cl)c1)nn2C1CCOCC1 (1 nM) :: 104

Let's switch to this molecule now.
I looked up O=C(O)CCCc1ccc(N(CCCl)CCCl)cc1 [Chlorambucil] (1000 nM) and its normalised response for BT-549 was 111

---

# System: MDA-MB-468
# experimental protocol: normalised viability (% of control), CellTiter-Blue; higher = more viable cells (about 100 = DMSO control)
# condition notes: 10 nM; incubation time: 72 h
# normalised viability listing for each entry below
The reply should be a number in %, with the unit left off.

Consider the reported normalised viability for these compounds:
CN(C)C[C@@H]1CCn2cc(c3ccccc32)C2=C(C(=O)NC2=O)c2cn(c3ccccc23)CCO1 :: 94.5
COc1ccc(-c2ccc3c(N4CCOC[C@@H]4C)nc(N4CCOC[C@@H]4C)nc3n2)cc1CO :: 98.2
CN(C)CCN1C(=O)c2cccc3cc(N)cc(c23)C1=O [Amonafide] :: 105

I looked up CC[C@]1(O)C[C@H]2CN(CCc3c([nH]c4ccccc34)[C@@](C(=O)OC)(c3cc4c(cc3OC)N(C=O)[C@H]3[C@@](O)(C(=O)OC)[C@H](OC(C)=O)[C@]5(CC)C=CCN6CC[C@]43[C@@H]65)C2)C1 and its normalised viability for MDA-MB-468 was 41.2

The measured values listed here are drawn from the supplement of paper PMC4862054.
